Numbers sourced from patent US9447136B2.

Entries and their Cytotoxicity IC50 HepG2
# Test system: HepG2
# Method: Cytotoxic activity against mammalian cells in tissue culture (MTT)
# Type: cell-based, human
# Experimental Context: HepG2, 120 h, MTT

CC1OC(O[C@H]2/C=C/C=C/C=C/C=C/CC/C=C/C=C/[C@H](C)[C@@H](O)[C@@H](C)[C@H](C)OC(=O)C[C@H](O)C[C@H](O)C[C@H](O)CC[C@@H](O)[C@H](O)CC3(O)C[C@H](O)[C@@H](C(=O)O)[C@H](C2)O3)C(O)C(NC(=S)NCC(C)(C)CN(C)C)C1O (some centres unmarked); >100 µg/mL

# next molecule below
Quick one: Cytotoxicity IC50 HepG2 of CC1OC(O[C@H]2/C=C/C=C/C=C/C=C/CC/C=C/C=C/[C@H](C)[C@@H](O)[C@@H](C)[C@H](C)OC(=O)C[C@H](O)C[C@H](O)C[C@H](O)CC[C@@H](O)[C@H](O)CC3(O)C[C@H](O)[C@@H](C(=O)O)[C@H](C2)O3)C(O)C(NC(=O)[C@@H](N)Cc2ccccc2)C1O (some centres unmarked) ? >100 µg/mL

----------
Entries and their Antifungal activity Candida tropicalis KKP 334 MIC
# System: Candida tropicalis KKP 334
# Method: Antifungal activity in vitro, serial dilution in RPMI 1640
# Type: cell-based
# Experimental Context: Table 2A; RPMI 1640, pH 7.0
Just the number please, in µg/mL, no unit attached.

Some entries whose results are on file:
CC1OC(O[C@H]2/C=C/C=C/C=C/C=C/CC/C=C/C=C/[C@H](C)[C@@H](O)[C@@H](C)[C@H](C)OC(=O)C[C@H](O)C[C@H](O)C[C@H](O)CC[C@@H](O)[C@H](O)CC3(O)C[C@H](O)[C@@H](C(=O)O)[C@H](C2)O3)C(O)C(NC(=O)[C@H](N)CCC(=O)OC(C)(C)C)C1O (stereo partly drawn) [Compound N37, N-D-(O-tert-butyl)glutamylnystatin A1]; 4
CC1OC(O[C@H]2/C=C/C=C/C=C/C=C/CC/C=C/C=C/[C@H](C)[C@@H](O)[C@@H](C)[C@H](C)OC(=O)C[C@H](O)C[C@H](O)C[C@H](O)CC[C@@H](O)[C@H](O)CC3(O)C[C@H](O)[C@@H](C(=O)O)[C@H](C2)O3)C(O)C(NC(=S)NCC(C)(C)CN(C)C)C1O (stereo partly shown) [Compound N19]; 4
CC1OC(O[C@H]2/C=C/C=C/C=C/C=C/CC/C=C/C=C/[C@H](C)[C@@H](O)[C@@H](C)[C@H](C)OC(=O)C[C@H](O)C[C@H](O)C[C@H](O)CC[C@@H](O)[C@H](O)CC3(O)C[C@H](O)[C@@H](C(=O)O)[C@H](C2)O3)C(O)C(NC2CC(=O)N(CC(C)(C)CN(C)C)C2=O)C1O (stereo partly shown) [Compound N10]; 8

# next molecule below
Quick one: Antifungal activity Candida tropicalis KKP 334 MIC of Cc1cc(C)c(N2C(=O)CC(N[C@@H]3[C@H](O)[C@H](O[C@H]4/C=C/C=C/C=C/C=C/CC/C=C/C=C/[C@H](C)[C@@H](O)[C@@H](C)[C@H](C)OC(=O)C[C@H](O)C[C@H](O)CC[C@@H](O)[C@H](O)C[C@H](O)C[C@]5(O)C[C@H](O)[C@@H](C(=O)O)[C@H](C4)O5)O[C@H](C)[C@H]3O)C2=O)c(C)c1 (stereo partly shown) [Compound N3] ? 16
